Just for reference, patent US5905076A is where these values come from.

# targetSystem: cathepsin B (Rattus norvegicus, UniProt P00787)
# Sequence (P00787 80-339): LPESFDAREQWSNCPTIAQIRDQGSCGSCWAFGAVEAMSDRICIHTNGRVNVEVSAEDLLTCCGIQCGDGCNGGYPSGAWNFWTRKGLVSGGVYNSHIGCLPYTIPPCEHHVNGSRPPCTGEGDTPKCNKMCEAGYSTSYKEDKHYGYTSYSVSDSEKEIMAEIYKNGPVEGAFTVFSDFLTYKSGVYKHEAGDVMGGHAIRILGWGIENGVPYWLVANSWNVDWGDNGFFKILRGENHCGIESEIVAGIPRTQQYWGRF
pIC50: −log10 of the molar value.
pIC50 reference

molecule: O=C(N[C@@H](Cc1ccccc1)C(=O)N[C@@H]1C(=O)N2CCO[C@H]12)OCc1ccccc1
relationalOperator: =
pIC50: 5.34

molecule: O=C(NC(C(=O)N[C@@H]1C(=O)N2CCO[C@H]12)c1ccccc1)OCc1ccccc1 (some centres unmarked)
relationalOperator: <
pIC50: 4.30

molecule: O=C(CCc1ccccc1)N[C@@H](Cc1ccccc1)C(=O)N[C@@H]1C(=O)N2CC(c3ccccc3)O[C@H]12 (some centres unmarked)
relationalOperator: <
pIC50: 4.30

molecule: O=C(CCc1ccccc1)N[C@@H](Cc1ccccc1)C(=O)N[C@@H]1C(=O)N2CC(CBr)O[C@@H]12 (some centres unmarked)
relationalOperator: =
pIC50: 5.72

molecule: O=C(N[C@@H]1C(=O)N2CCO[C@H]12)OCc1ccccc1
relationalOperator: <
pIC50: 4.30
